Values compiled from patent US8664257B2.

# TGT: Recombinant human cathepsin A (Homo sapiens, UniProt P10619)
# Construct: Recombinant human cathepsin A (residues 29-480, with a C-terminal 10-His tag); 10-His (C); purchased R&D Systems 1049-SE
# Sequence (P10619 29-312 limits assumed): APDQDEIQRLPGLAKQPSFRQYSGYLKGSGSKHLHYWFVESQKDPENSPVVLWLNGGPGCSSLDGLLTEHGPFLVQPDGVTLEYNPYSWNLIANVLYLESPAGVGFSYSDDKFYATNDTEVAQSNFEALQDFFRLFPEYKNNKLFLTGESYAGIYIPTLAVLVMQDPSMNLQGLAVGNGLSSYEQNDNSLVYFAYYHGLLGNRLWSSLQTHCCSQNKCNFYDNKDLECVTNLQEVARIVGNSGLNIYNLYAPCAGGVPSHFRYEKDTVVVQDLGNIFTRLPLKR
# Sequence (P10619 327-480 limits assumed): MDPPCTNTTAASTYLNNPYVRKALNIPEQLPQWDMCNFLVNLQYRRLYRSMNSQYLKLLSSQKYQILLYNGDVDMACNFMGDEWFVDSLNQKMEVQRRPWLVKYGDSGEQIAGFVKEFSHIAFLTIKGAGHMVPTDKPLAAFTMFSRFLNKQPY
# TEST_DESCRIPTION: Cathepsin A inhibitory activity
# Assay type: biochemical
# CONDITION_DETAILS: pharmacological test "Cathepsin A inhibitory activity"; IC50 given as class A/B/C; read-out: Activity (2): Cathepsin A inhibitory activity, IC50 class
Form field: IC50 (one value per entry).
RECORDED_METRIC: IC50

compound="O=C(O)CC(NC(=O)c1cc(O)n(-c2ccccc2F)n1)c1cccc2c1OCO2 (stereo not shown) [Example 228]" tgt="Recombinant human cathepsin A (Homo sapiens, UniProt P10619)" value_measured="100 to 1000 nM"
compound="COc1ccc(Cl)cc1C(CC(=O)O)NC(=O)c1cc(O)n(-c2ccc(F)cc2F)n1 (stereo not shown) [Example 178]" tgt="Recombinant human cathepsin A (Homo sapiens, UniProt P10619)" value_measured="1000 to 30000 nM"
compound="COc1cccc(-c2ccc(C(CC(=O)O)NC(=O)c3cc(O)n(-c4ccccc4F)n3)cc2)c1 (stereo not shown) [Example 156]" tgt="Recombinant human cathepsin A (Homo sapiens, UniProt P10619)" value_measured="100 to 1000 nM"
compound="O=C(O)C[C@H](NC(=O)c1cc(O)n(-c2ccccc2Cl)n1)c1ccccc1Br [Example 204]" tgt="Recombinant human cathepsin A (Homo sapiens, UniProt P10619)" value_measured="100 to 1000 nM"
compound="COc1ccc(C(CC(=O)O)NC(=O)c2cc(O)n(-c3ccccc3)n2)c(Cl)c1 (stereo not shown) [Example 162]" tgt="Recombinant human cathepsin A (Homo sapiens, UniProt P10619)" value_measured="100 to 1000 nM"
compound="O=C(O)C[C@@H](NC(=O)c1cc(O)n(-c2ccccc2F)n1)c1ccc(-c2ccc(F)cc2)cc1 [Example 147]" tgt="Recombinant human cathepsin A (Homo sapiens, UniProt P10619)" value_measured="< 100 nM"
compound="COc1ccccc1[C@H](CC(=O)O)NC(=O)c1cc(O)n(-c2ccc(F)cc2F)n1 [Example 177]" tgt="Recombinant human cathepsin A (Homo sapiens, UniProt P10619)" value_measured="100 to 1000 nM"
compound="O=C(O)CC(NC(=O)c1cc(O)n(-c2ccccc2)n1)c1cccc2c1OCO2 (stereo not shown) [Example 158]" tgt="Recombinant human cathepsin A (Homo sapiens, UniProt P10619)" value_measured="100 to 1000 nM"
compound="O=C(O)CC(NC(=O)c1cc(O)n(-c2ccccc2Cl)n1)c1cccc(Cl)c1F (stereo not shown) [Example 222]" tgt="Recombinant human cathepsin A (Homo sapiens, UniProt P10619)" value_measured="100 to 1000 nM"
compound="O=C(O)C[C@H](NC(=O)c1cc(O)n(-c2cccc(Cl)c2)n1)c1ccc(Cl)cc1Cl [Example 266]" tgt="Recombinant human cathepsin A (Homo sapiens, UniProt P10619)" value_measured="100 to 1000 nM"
compound="O=C(O)C[C@H](NC(=O)c1cc(O)n(-c2ccccc2Cl)n1)c1cccc(Cl)c1 [Example 214]" tgt="Recombinant human cathepsin A (Homo sapiens, UniProt P10619)" value_measured="100 to 1000 nM"
compound="O=C(O)C[C@H](NC(=O)c1cc(O)n(-c2ccc(F)cc2F)n1)c1cccc(Cl)c1Cl [Example 181]" tgt="Recombinant human cathepsin A (Homo sapiens, UniProt P10619)" value_measured="< 100 nM"
compound="N#Cc1ccc([C@H](CC(=O)O)NC(=O)c2cc(O)n(-c3ccc(F)cc3F)n2)cc1 [Example 176]" tgt="Recombinant human cathepsin A (Homo sapiens, UniProt P10619)" value_measured="100 to 1000 nM"
